The measurements presented in this section are drawn from patent US12065443B2.

# studyTarget: SIK1 (Homo sapiens)
# Construct: purchased Carna Biosciences 02-131
# Sequence (P57059 whole entry): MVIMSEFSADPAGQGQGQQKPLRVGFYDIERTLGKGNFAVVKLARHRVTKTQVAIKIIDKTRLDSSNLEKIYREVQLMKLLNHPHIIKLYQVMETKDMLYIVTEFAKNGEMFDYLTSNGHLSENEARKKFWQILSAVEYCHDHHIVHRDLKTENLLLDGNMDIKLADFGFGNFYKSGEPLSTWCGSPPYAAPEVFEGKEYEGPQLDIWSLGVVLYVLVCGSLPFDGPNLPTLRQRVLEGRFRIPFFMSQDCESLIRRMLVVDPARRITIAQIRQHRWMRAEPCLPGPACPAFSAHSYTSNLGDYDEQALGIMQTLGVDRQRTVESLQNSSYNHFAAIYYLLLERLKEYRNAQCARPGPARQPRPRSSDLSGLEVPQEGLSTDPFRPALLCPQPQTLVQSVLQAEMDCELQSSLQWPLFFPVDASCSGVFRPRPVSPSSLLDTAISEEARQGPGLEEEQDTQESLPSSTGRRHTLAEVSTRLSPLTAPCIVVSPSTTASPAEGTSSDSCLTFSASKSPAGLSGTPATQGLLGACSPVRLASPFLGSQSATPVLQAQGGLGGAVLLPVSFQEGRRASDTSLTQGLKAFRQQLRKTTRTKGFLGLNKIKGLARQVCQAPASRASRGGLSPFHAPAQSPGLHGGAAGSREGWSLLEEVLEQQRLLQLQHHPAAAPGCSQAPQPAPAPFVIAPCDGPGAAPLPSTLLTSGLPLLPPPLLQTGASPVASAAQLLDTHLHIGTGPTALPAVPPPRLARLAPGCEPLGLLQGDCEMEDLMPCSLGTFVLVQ
# procedureText: biochemical
# protocolConditions: 33P radioactive SIK kinase assay, AMARA peptide, 10 μM ATP; read-out: SIK1 IC50
pIC50: −log10 of the molar value.
Provide the reported pIC50 of each item.

Reported pIC50, compound CCn1cc(-c2ccc3c(c2)ncn3-c2cc(OC)c(C(=O)NCCC(F)(F)F)c(OC)c2)cn1 : ____
7.00 to 8.00

Reported pIC50, compound COc1cc(-n2cnc3cc(-c4cnn(C)c4)ccc32)cc(OC(F)F)c1C(=O)NC(C)(C)C : ____
< 6.30

Reported pIC50, compound CCn1cc(-c2ccc3c(c2)ncn3-c2cc(OC)c(C(=O)NCCF)c(OC)c2)cn1 : ____
7.00 to 8.00

Reported pIC50, compound C#CC1(O)CN(C(=O)c2c(OC)cc(-n3cnc4cc(-c5cnn(C)c5)ccc43)cc2OC)C1 : ____
7.00 to 8.00

Reported pIC50, compound COc1cc(-n2cnc3cc(-c4cnn(C)c4)ccc32)cc(OC)c1C(=O)N[C@@H]1C[C@@H]1F : ____
8.00 to 11.00

Reported pIC50, compound COc1cc(-c2cnc3cc(-c4cnccc4C(N)=O)ccn23)cc(OC)c1C(=O)NCC(F)(F)F : ____
< 6.30

Reported pIC50, compound COc1cc(-n2cnc3cc(-c4cnn(CC#N)c4)ccc32)cc(OC(F)F)c1C(=O)NC1CC1 : ____
8.00 to 11.00

Reported pIC50, compound COc1cc(-c2cnc3cc(-c4cnn(C)c4)ccn23)cc2c1C(=O)N(CC(F)(F)F)CC2 : ____
7.00 to 8.00
